EXPERIMENT_DESCRIPTION: Single-dose pharmacokinetics in nude mice
Assay type: in vivo
EXPERIMENTAL_SETUP: BomTac:NMRI-Foxn1^nu, mouse, plasma; single intravenous dose 5 mg/kg, female nude mice; read-out: mean residence time
QUANTITY: MRT (h)
One number for each entry, in h.

Q: # query: MRT of entry `COc1cc(C(=O)NC2CCN(C)CC2)c(F)cc1Nc1ncc(C(F)(F)F)c(Oc2cccc3c2C(=O)N(C)C3)n1`
Result: 3

----------
EXPERIMENT_DESCRIPTION: Drug concentrations in plasma and tumor of PC-3 tumor-bearing mice
Format: in vivo
EXPERIMENTAL_SETUP: BomTac:NMRI-Foxn1^nu, mouse, PC-3 tumor tissue, oral; 50 mg/kg p.o. qdx4, 24 h after dose on day 4, PC-3 tumors; read-out: concentration in tumor tissue
QUANTITY: concentration at 24 h (µM)
Numbers only, in µM.

Q: Entry `COc1cc(C(=O)NC2CCN(C)CC2)c(F)cc1Nc1ncc(C(F)(F)F)c(Oc2cccc3c2C(=O)N(C)C3)n1` has what concentration at 24 h?
Result: 8.9

----------
EXPERIMENT_DESCRIPTION: Drug concentrations in plasma and tumor of PC-3 tumor-bearing mice
Type: in vivo
EXPERIMENTAL_SETUP: BomTac:NMRI-Foxn1^nu, mouse, PC-3 tumor tissue, po; 50 mg/kg p.o. qdx4, day 4, PC-3 tumors; read-out: time of peak level in tumor tissue
QUANTITY: Tmax (h)
Numbers only, in h.

Q: Given the molecule `COc1cc(C(=O)NC2CCN(C)CC2)c(F)cc1Nc1ncc(C(F)(F)F)c(Oc2cccc3c2C(=O)N(C)C3)n1` , what is its reported Tmax?
Result: 6

----------
System: panel of 243 cancer cell lines
EXPERIMENT_DESCRIPTION: Cancer cell line panel, 2D proliferation (Eurofins Panlabs)
Type: cell-based, human
EXPERIMENTAL_SETUP: Homo sapiens; few cell lines with interpretable sigmoid curves, 2D culture
pEC50: −log10 of the molar value.
QUANTITY: pEC50

Q: # lookup: pEC50 of `COc1cc(C(=O)NC2CCN(C)CC2)c(F)cc1Nc1ncc(C(F)(F)F)c(Oc2cccc3c2C(=O)N(C)C3)n1`
Result: 7.52 to 8.52

----------
EXPERIMENT_DESCRIPTION: Single-dose pharmacokinetics in nude mice
Type: in vivo
EXPERIMENTAL_SETUP: female, BomTac:NMRI-Foxn1^nu, mouse, plasma; single oral dose 50 mg/kg
QUANTITY: half-life (h)
Give bare numbers, in h.

Q: Give the measured half-life of COc1cc(C(=O)NC2CCN(C)CC2)c(F)cc1Nc1ncc(C(F)(F)F)c(Oc2cccc3c2C(=O)N(C)C3)n1 [BI 853520] .
Result: 5

----------
EXPERIMENT_DESCRIPTION: Single-dose pharmacokinetics in nude mice
Format: in vivo
EXPERIMENTAL_SETUP: female, BomTac:NMRI-Foxn1^nu, mouse; single oral dose 50 mg/kg, plasma; read-out: time of maximal concentration
QUANTITY: Tmax (h)
Answers are plain numbers, in h.

Q: Fill in: Tmax of `COc1cc(C(=O)NC2CCN(C)CC2)c(F)cc1Nc1ncc(C(F)(F)F)c(Oc2cccc3c2C(=O)N(C)C3)n1` is ___
Result: 2

----------
TESTED_SYSTEM: PAK7 (Homo sapiens)
Sequence (Q9P286 whole entry): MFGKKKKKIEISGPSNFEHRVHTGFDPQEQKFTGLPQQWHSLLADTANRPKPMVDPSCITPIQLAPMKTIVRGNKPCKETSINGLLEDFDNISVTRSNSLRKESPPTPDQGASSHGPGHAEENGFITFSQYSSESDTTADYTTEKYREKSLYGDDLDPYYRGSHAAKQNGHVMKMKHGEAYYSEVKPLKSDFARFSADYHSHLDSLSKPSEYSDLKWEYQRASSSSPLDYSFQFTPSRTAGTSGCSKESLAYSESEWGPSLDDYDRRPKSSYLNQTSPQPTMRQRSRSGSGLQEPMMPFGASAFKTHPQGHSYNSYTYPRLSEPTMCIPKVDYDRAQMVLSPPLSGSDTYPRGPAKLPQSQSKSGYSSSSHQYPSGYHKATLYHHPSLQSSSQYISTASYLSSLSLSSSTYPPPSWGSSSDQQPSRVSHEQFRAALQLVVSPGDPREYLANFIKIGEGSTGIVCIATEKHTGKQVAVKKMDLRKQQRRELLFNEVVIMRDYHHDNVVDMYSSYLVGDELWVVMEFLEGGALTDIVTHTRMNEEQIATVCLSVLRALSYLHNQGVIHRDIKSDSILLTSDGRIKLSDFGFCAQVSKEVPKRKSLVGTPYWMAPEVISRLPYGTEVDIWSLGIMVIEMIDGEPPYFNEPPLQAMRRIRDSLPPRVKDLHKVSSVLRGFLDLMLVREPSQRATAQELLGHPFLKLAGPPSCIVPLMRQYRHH
pIC50: −log10 of the molar value.
QUANTITY: pIC50

Q: Requested read-out: pIC50. Entry: `COc1cc(C(=O)NC2CCN(C)CC2)c(F)cc1Nc1ncc(C(F)(F)F)c(Oc2cccc3c2C(=O)N(C)C3)n1`
Result: < 5.00
